tgt: HLA-A02.01 (Homo sapiens, UniProt P04439, D140Y/D185E/D98H/E176V/E277Q/G131W/G231S/I119V/I121R/I166T/I218V/L300P/L318F/N151K/N90K/P208A/P217A/Q86G/Q94H/R138H/R169H/T345S)
assay method text: Class I MHC peptide binding affinity (displacement of radiolabeled reference peptide)
assay context: allele A02.01; read-out: Observed Affinity (IC50; (nM))
Where a SMILES comes first, the peptide text is derived from it.
attribute measured: IC50 (nM)
Answers are plain numbers, in nM.

Consider the following illustrative entries.
# molecule, unit of measure, IC50
rows = [
    ("CC[C@H](C)[C@H](NC(=O)[C@@H](NC(=O)[C@H](CC(C)C)NC(=O)[C@@H](NC(=O)[C@@H]1CCCN1C(=O)[C@H](CCCNC(=N)N)NC(=O)[C@H](Cc1c[nH]c2ccccc12)NC(=O)[C@H](CC(N)=O)NC(=O)[C@H](CCSC)NC(=O)CN)[C@@H](C)CC)[C@@H](C)O)C(=O)O", "nM", 282),
    ("CC(C)C[C@H](NC(=O)[C@H](C)NC(=O)[C@H](CC(C)C)NC(=O)[C@H](CC(C)C)NC(=O)[C@@H](N)Cc1ccccc1)C(=O)N[C@@H](Cc1c[nH]c2ccccc12)C(=O)N[C@@H](CCC(=O)O)C(=O)N[C@@H](CS)C(=O)N[C@@H](CO)C(=O)O (H-FLLALWECS-OH; N-terminus and C-terminus assumed)", "nM", 93.2),
    ("CC(C)C[C@H](NC(=O)[C@@H](N)C(C)C)C(=O)N[C@H](C(=O)N[C@H](C(=O)N[C@H](C(=O)N[C@@H](CO)C(=O)N[C@H](C(=O)N[C@@H](CC(=O)O)C(=O)N[C@H](C(=O)O)C(C)C)[C@@H](C)O)[C@@H](C)O)C(C)C)[C@@H](C)O (H-VLTVTSTDV-OH)", "nM", 295),
]

Please state IC50 for every molecule in the list that follows.
1. CC[C@H](C)[C@H](NC(=O)[C@H](Cc1ccc(O)cc1)NC(=O)[C@H](CC(C)C)NC(=O)[C@@H](N)CC(C)C)C(=O)N[C@H](C(=O)N[C@@H](C)C(=O)N[C@@H](Cc1ccccc1)C(=O)N[C@@H](Cc1ccccc1)C(=O)N[C@@H](CC(C)C)C(=O)O)[C@@H](C)O
2. CC[C@H](C)[C@H](N)C(=O)N[C@@H](CCSC)C(=O)N[C@@H](CCC(N)=O)C(=O)N[C@@H](CC(C)C)C(=O)N[C@@H](CCSC)C(=O)N1CCC[C@H]1C(=O)N[C@@H](Cc1ccccc1)C(=O)NCC(=O)N[C@@H](CS)C(=O)N[C@@H](CC(C)C)C(=O)O
3. CC(C)[C@H](NC(=O)[C@H](CO)NC(=O)[C@H](CS)NC(=O)[C@H](CO)NC(=O)[C@H](CCCCN)NC(=O)[C@@H](NC(=O)[C@H](CCC(=O)O)NC(=O)[C@H](Cc1ccccc1)NC(=O)[C@H](Cc1ccccc1)NC(=O)[C@@H](N)Cc1ccccc1)[C@@H](C)O)C(=O)O (H-FFFETKSCSV-OH; N-terminus and C-terminus assumed)
4. CSCC[C@H](NC(=O)[C@H](CCC(=O)O)NC(=O)[C@H](CC(C)C)NC(=O)[C@H](CC(C)C)NC(=O)[C@H](CC(C)C)NC(=O)[C@H](CC(=O)O)NC(=O)[C@H](CS)NC(=O)[C@H](CC(C)C)NC(=O)[C@@H]1CCCN1)C(=O)N[C@@H](CC(C)C)C(=O)O (H-PLCDLLLEML-OH; N-terminus and C-terminus assumed)

713
837
61.2
2010

====

tgt: HLA-A03.01 (Homo sapiens)
assay method text: Class I MHC peptide binding affinity (displacement of radiolabeled reference peptide)
assay context: allele A03.01; read-out: Observed Affinity (IC50; (nM))
Where a SMILES comes first, the peptide text is derived from it.
attribute measured: IC50 (nM)
Answers are plain numbers, in nM.

# compound, IC50 / nM
rows = [
    ("C[C@@H](O)[C@H](NC(=O)[C@@H](N)CCCCN)C(=O)N[C@@H](Cc1ccccc1)C(=O)N[C@@H](CCC(=O)O)C(=O)N[C@@H](CCCCN)C(=O)N[C@@H](CCCCN)C(=O)NCC(=O)N[C@@H](CCC(=O)O)C(=O)N[C@@H](CCCCN)C(=O)O (H-KTFEKKGEK-OH; N-terminus and C-terminus assumed)", 32.2),
]

Turning now to a further record.
Sure, the documented IC50 for CC(C)C[C@H](NC(=O)[C@H](C)NC(=O)[C@@H]1CCCN1C(=O)[C@@H](NC(=O)[C@H](CCCCN)NC(=O)[C@H](CCCCN)NC(=O)[C@H](CC(C)C)NC(=O)[C@@H](N)CO)C(C)C)C(=O)N[C@@H](CCCCN)C(=O)O (H-SLKKVPALK-OH; N-terminus and C-terminus assumed) is 4.4

====

tgt: HLA-A02.01 (Homo sapiens, UniProt P04439, D140Y/D185E/D98H/E176V/E277Q/G131W/G231S/I119V/I121R/I166T/I218V/N151K/N90K/P208A/P217A/Q86G/Q94H/R138H/R169H)
Construct: made in house; host or cells: E. coli
assay method text: Class I MHC peptide binding stability (pMHC-I dissociation, 125I-labeled light chain)
assay context: allele A02.01
Where a SMILES comes first, the peptide text is derived from it.
Respond with YES for Stability (T1/2 (h)) values of 3 h and above, NO for values below.

# example entries with known answers
# molecule, discrete label
records = [
    ("CC(C)C[C@H](NC(=O)[C@@H](N)CCCNC(=N)N)C(=O)N[C@@H](CO)C(=O)N[C@@H](CO)C(=O)N[C@@H](CS)C(=O)N[C@H](C(=O)N1CCC[C@H]1C(=O)N[C@H](C(=O)N[C@@H](C)C(=O)O)C(C)C)C(C)C", "YES"),
    ("CC(C)C[C@H](NC(=O)[C@H](CC(C)C)NC(=O)[C@H](CC(C)C)NC(=O)CNC(=O)[C@H](Cc1ccc(O)cc1)NC(=O)[C@H](CC(C)C)NC(=O)[C@@H]1CCCN1C(=O)[C@@H](NC(=O)[C@@H](N)C(C)C)C(C)C)C(=O)O", "NO"),
    ("CC(C)C[C@H](NC(=O)[C@H](C)NC(=O)[C@@H](NC(=O)[C@H](CCCNC(=N)N)NC(=O)[C@H](CO)NC(=O)[C@H](CC(=O)O)NC(=O)[C@H](CO)NC(=O)[C@H](CC(C)C)NC(=O)[C@@H](N)CCCCN)[C@@H](C)O)C(=O)O [KLSDSRTAL]", "NO"),
    ("CC[C@H](C)[C@H](NC(=O)[C@@H](N)C(C)C)C(=O)N[C@H](C(=O)N[C@@H](CCC(=O)O)C(=O)N[C@@H](Cc1ccc(O)cc1)C(=O)N[C@@H](CS)C(=O)N[C@@H](CS)C(=O)N[C@@H](Cc1ccc(O)cc1)C(=O)NCC(=O)O)[C@@H](C)CC (H-VIIEYCCYG-OH; N-terminus and C-terminus assumed)", "NO"),
    ("CC(C)C[C@H](NC(=O)CN)C(=O)N[C@@H](CC(C)C)C(=O)N[C@@H](C)C(=O)N[C@@H](Cc1ccccc1)C(=O)N[C@@H](Cc1c[nH]c2ccccc12)C(=O)N[C@@H](CC(=O)O)C(=O)N[C@@H](CO)C(=O)N[C@@H](CCC(N)=O)C(=O)N[C@H](C(=O)O)C(C)C (H-GLLAFWDSQV-OH; N-terminus and C-terminus assumed)", "YES"),
    ("CSCC[C@H](NC(=O)[C@@H](N)C(C)C)C(=O)N[C@@H](C)C(=O)NCC(=O)N[C@@H](CC(C)C)C(=O)NCC(=O)N[C@@H](CO)C(=O)N1CCC[C@H]1C(=O)N[C@@H](Cc1ccc(O)cc1)C(=O)N[C@H](C(=O)O)C(C)C (H-VMAGLGSPYV-OH; N-terminus and C-terminus assumed)", "NO"),
]

Attention now turns to another entry.
Please check the record CC(C)C[C@H](NC(=O)[C@H](CC(=O)O)NC(=O)[C@H](CO)NC(=O)[C@H](CCC(N)=O)NC(=O)[C@H](CCC(N)=O)NC(=O)[C@H](CCC(N)=O)NC(=O)[C@H](CCC(N)=O)NC(=O)[C@H](CCC(N)=O)NC(=O)[C@@H](N)Cc1ccc(O)cc1)C(=O)O (H-YQQQQQSDL-OH; N-terminus and C-terminus assumed) and state if its Stability (T1/2 (h)) is at or above 3 h.
NO

====

Could you please report measured Kd for the items listed next?
tgt: HLA-A02.01 (Homo sapiens, UniProt P04439, D140Y/D185E/D98H/E176V/E277Q/G131W/G231S/I119V/I121R/I166T/I218V/L300P/L318F/N151K/N90K/P208A/P217A/Q86G/Q94H/R138H/R169H/T345S)
assay method text: Class I MHC peptide binding affinity (displacement of radiolabeled reference peptide)
assay context: EGFR T790M peptides; HLA allele A02.01; read-out: Affinity
Where a SMILES comes first, the peptide text is derived from it.
Numbers only, in nM.

# molecule, attribute measured, unit of measure, value observed
records = [
    ("CC[C@H](C)[C@H](N)C(=O)N[C@@H](CCSC)C(=O)N[C@@H](CCC(N)=O)C(=O)N[C@@H](CC(C)C)C(=O)N[C@@H](CCSC)C(=O)N1CCC[C@H]1C(=O)N[C@@H](Cc1ccccc1)C(=O)NCC(=O)N[C@@H](CS)C(=O)O (H-IMQLMPFGC-OH; N-terminus and C-terminus assumed)", "Kd", "nM", 1210),
    ("CC[C@H](C)[C@H](N)C(=O)N[C@@H](CCSC)C(=O)N[C@@H](CCC(N)=O)C(=O)N[C@@H](CC(C)C)C(=O)N[C@@H](CCSC)C(=O)N1CCC[C@H]1C(=O)N[C@@H](Cc1ccccc1)C(=O)NCC(=O)N[C@@H](CS)C(=O)N[C@@H](CC(C)C)C(=O)O", "Kd", "nM", 653),
    ("CSCC[C@H](NC(=O)[C@H](CC(C)C)NC(=O)[C@H](CCC(N)=O)NC(=O)[C@@H](N)CCSC)C(=O)N1CCC[C@H]1C(=O)N[C@@H](Cc1ccccc1)C(=O)NCC(=O)N[C@@H](CS)C(=O)N[C@@H](CC(C)C)C(=O)N[C@@H](CC(C)C)C(=O)O", "Kd", "nM", 16.3),
]

Please state Kd for every molecule in the list that follows.
1. CC[C@H](C)[C@H](NC(=O)[C@H](CC(C)C)NC(=O)[C@@H](N)CCC(N)=O)C(=O)N[C@@H](CCSC)C(=O)N[C@@H](CCC(N)=O)C(=O)N[C@@H](CC(C)C)C(=O)N[C@@H](CCSC)C(=O)N1CCC[C@H]1C(=O)N[C@@H](Cc1ccccc1)C(=O)NCC(=O)O (H-QLIMQLMPFG-OH; N-terminus and C-terminus assumed)
2. CC[C@H](C)[C@H](NC(=O)[C@@H](N)CC(C)C)C(=O)N[C@@H](CCSC)C(=O)N[C@@H](CCC(N)=O)C(=O)N[C@@H](CC(C)C)C(=O)N[C@@H](CCSC)C(=O)N1CCC[C@H]1C(=O)N[C@@H](Cc1ccccc1)C(=O)NCC(=O)O (H-LIMQLMPFG-OH; N-terminus and C-terminus assumed)

1: 5210; 2: 3340

Source listed as patent US20220282217A1.
